B1: Peroxisome proliferator-activated receptor delta, residues 71 to 145; numbered along this chain, Q03181 (parent)
chain: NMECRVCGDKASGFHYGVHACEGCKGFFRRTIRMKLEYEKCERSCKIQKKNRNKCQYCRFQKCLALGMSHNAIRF

- Variants of: B1
- experimentalProtocol: abundance fitness (aPCA) (normalised: wild type 0, dead -1); higher = more abundant; growth selection in yeast, the domain comes from the species named
- protocolConditions: Homo sapiens
Label yes (1) when abundance fitness is at or above -0.1; anything below gets no (0).

Could you verify whether the entry D9C shows abundance fitness of no less than -0.1?
no (0)

Assess whether reported abundance fitness for N51Q sits at -0.1 or higher.
yes (1)

Identify whether the reported abundance fitness of the following variant is -0.1 or greater: V6W
no (0)

Check if abundance fitness >= -0.1 (inclusive). Item: G26M
yes (1)

Record E22W ; criterion: abundance fitness no lower than -0.1. Met?
no (0)

Quick check, abundance fitness >= -0.1? Y16E
yes (1)

Quick check: does G23E have abundance fitness greater than or equal to -0.1?
yes (1)

Reported abundance fitness reaches at least -0.1 for I73A ?
yes (1)

Is abundance fitness at least -0.1? Consider G23I
no (0)

Form field: abundance fitness at least -0.1? Entry: F27C
no (0)

Threshold query (abundance fitness >= -0.1) on C7T
no (0)

Has E22P a recorded abundance fitness greater than or equal to -0.1?
no (0)

# check: abundance fitness of S69A is greater than or equal to -0.1
yes (1)

abundance fitness >= -0.1 for K54F ?
yes (1)

// inclusive: abundance fitness at least -0.1? input: H19R
yes (1)

Decide: abundance fitness of E37L >= -0.1?
no (0)

Is abundance fitness at least -0.1? Consider M2W
no (0)

Could you tell me if the measured abundance fitness of G8T reaches -0.1 or more?
no (0)

Is abundance fitness at least -0.1? Consider R59C
no (0)

// inclusive: abundance fitness at least -0.1? input: K62Y
no (0)

Please indicate if the recorded abundance fitness for K50D meets or exceeds -0.1.
yes (1)

# check: abundance fitness of G8P is greater than or equal to -0.1
no (0)

Kindly determine if abundance fitness recorded for E3D is above or exactly -0.1.
yes (1)

Could you verify whether the entry F14W shows abundance fitness of no less than -0.1?
no (0)

Determine whether this variant has abundance fitness no lower than -0.1: G23W
yes (1)

Evaluate R43I : abundance fitness at minimum -0.1?
no (0)

Threshold query (abundance fitness >= -0.1) on C45R
no (0)

Test whether the variant R30T records abundance fitness of -0.1 or higher.
yes (1)

Determine whether this variant has abundance fitness no lower than -0.1: R5G
yes (1)

Does the variant F14P have recorded abundance fitness that is -0.1 or more?
no (0)

Is abundance fitness for T31E at or above -0.1?
no (0)

Form field: abundance fitness at least -0.1? Entry: A72M
yes (1)

Kindly determine if abundance fitness recorded for G67I is above or exactly -0.1.
no (0)

Exam item: decide whether the reported abundance fitness for N51G is at least -0.1.
no (0)

Form field: abundance fitness at least -0.1? Entry: E42L
no (0)

Quick check: does C24T have abundance fitness greater than or equal to -0.1?
no (0)

Can I32R be said to have abundance fitness at or above -0.1?
no (0)

Determine whether this variant has abundance fitness no lower than -0.1: M2V
no (0)

Can F14T be said to have abundance fitness at or above -0.1?
yes (1)

Does abundance fitness meet or surpass -0.1 for A72G ?
yes (1)
